Where do the numbers come from? From patent US5723594.

# Study system: PDGF-BB (Homo sapiens, UniProt P01127 P01127:82-190)
# Sequence (P01127 82-190, one chain of several): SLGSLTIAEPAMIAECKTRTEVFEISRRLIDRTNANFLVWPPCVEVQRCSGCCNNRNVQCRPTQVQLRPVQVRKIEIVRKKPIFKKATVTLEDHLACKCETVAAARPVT
# Assay text: cell_activity; slightly less efficient than 36t; thymidine incorporation
# Condition info: tags: R&D Systems, carrier-free, E. coli produced; chain copies: 2 (homodimer, inferred); label: 5'-32P; three-way helix junction
pIC50: −log10 of the molar value.
Assay readout: pIC50

Problem: Given the binder TGGGAGGGCGCGTTCTTCGTGGTTACTTTTAGTCCCGT (ssDNA, 3'-3' linked inverted T at 3' end) [20t] , what is its reported pIC50?
Solution: < 8.60
